# method: Volume of distribution at steady state in ICR mouse at 5 mg/kg, iv measured upto 24 hrs by LC-MS/MS analysis
# Type: ADME, organism-based
# conditionDescription: in vivo, read-out: Vdss
reportedProperty: Vd (L/kg)
Write the answer as a number in L/kg, unit excluded.

So what's the measured Vd for this one? CN(CC(=O)N(Cc1ccc(C2CCCCC2)cc1)c1ccc(B(O)O)cc1)S(=O)(=O)c1c(F)c(F)c(F)c(F)c1F 18.7

---

# method: Antiproliferative activity against […] H9c2 cells assessed as reduction in cell viability incubated for 72 hrs by CCK-8 assay
# Format: toxicity, cell-based
# conditionDescription: rat
Catalogue of IC50 at 72 h values
Use µM as the unit, but write only the number.

| smilesInput | IC50 at 72 h, µM |
| --- | --- |
| CN(CC(=O)N(Cc1ccc(C2CCCCC2)cc1)c1ccc(C(=O)O)cc1)S(=O)(=O)c1c(F)c(F)c(F)c(F)c1F | 10.2 |

Please find the next molecule below.
Name the reported IC50 at 72 h value associated with the molecule CN(CC(=O)N(Cc1ccc(C2CCCCC2)cc1)c1ccc(B(O)O)cc1)S(=O)(=O)c1c(F)c(F)c(F)c(F)c1F 9.05

---

Recorded IC50, one value per entry.
# Test system: MGC-803
# method: Antiproliferative activity against human MGC-803 cells assessed as reduction in cell viability measured after 72 hrs by CCK-8 assay
# Type: functional, cell-based
# conditionDescription: MGC-803, 72 h
Dear colleague, please return just the value in µM, with no unit written.

Please review the entries below; each comes with its answer.
| smilesInput | studySystem | valueUnit | IC50 |
| --- | --- | --- | --- |
| CN(CC(=O)N(Cc1ccc(C2CCCCC2)cc1)c1ccc(B(O)O)cc1)S(=O)(=O)c1c(F)c(F)c(F)c(F)c1F | MGC-803 | µM | 4.73 |
| C[C@H](C(=O)N(Cc1ccc(C2CCCCC2)cc1)c1ccc(B(O)O)cc1)N(C)S(=O)(=O)c1c(F)c(F)c(F)c(F)c1F | MGC-803 | µM | 3.13 |
| C[C@@H](C(=O)N(Cc1ccc(C2CCCCC2)cc1)c1ccc(B(O)O)cc1)N(C)S(=O)(=O)c1c(F)c(F)c(F)c(F)c1F | MGC-803 | µM | 4.71 |

Kindly state the measured IC50 obtained for O=C([C@H]1CCN1S(=O)(=O)c1c(F)c(F)c(F)c(F)c1F)N(Cc1ccc(C2CCCCC2)cc1)c1ccc(B(O)O)cc1 with MGC-803. 4.83

Observed IC50 on MGC-803 for CN(CC(=O)N(Cc1ccc(C2CCCCC2)cc1)c1ccc(C(=O)O)cc1)S(=O)(=O)c1c(F)c(F)c(F)c(F)c1F , please. 8.51

What is its IC50 for MGC-803? Entry: O=C([C@H]1CCCN1S(=O)(=O)c1c(F)c(F)c(F)c(F)c1F)N(Cc1ccc(C2CCCCC2)cc1)c1ccc(B(O)O)cc1 6.07

---

# method: Half life in ICR mouse at 5 mg/kg, iv measured upto 24 hrs by LC-MS/MS analysis
# Type: ADME, organism-based
# conditionDescription: in vivo
reportedProperty: half-life (h)
Could you give me the number in h? Just the number is fine.

Given the molecule CN(CC(=O)N(Cc1ccc(C2CCCCC2)cc1)c1ccc(B(O)O)cc1)S(=O)(=O)c1c(F)c(F)c(F)c(F)c1F , what is its reported half-life? 1.25

---

# method: Clearance in ICR mouse at 5 mg/kg, iv measured upto 24 hrs by LC-MS/MS analysis
# Format: ADME, organism-based
# conditionDescription: in vivo
reportedProperty: clearance

I would be grateful if you could share the reported clearance for CN(CC(=O)N(Cc1ccc(C2CCCCC2)cc1)c1ccc(B(O)O)cc1)S(=O)(=O)c1c(F)c(F)c(F)c(F)c1F . 176 mL/min/kg

---

# method: in vivo
# Format: ADME, organism-based
# conditionDescription: ICR, mouse, iv, 5 mg/kg
reportedProperty: AUC(0-t) at 24 h (ng·h/mL)
Give a bare numeral; the unit ng·h/mL is implied.

Could you tell me which AUC(0-t) at 24 h is on file for CN(CC(=O)N(Cc1ccc(C2CCCCC2)cc1)c1ccc(B(O)O)cc1)S(=O)(=O)c1c(F)c(F)c(F)c(F)c1F ? 485

---

# method: in vivo
# Format: ADME, organism-based
# conditionDescription: ICR, mouse, iv, 5 mg/kg
reportedProperty: AUC(0-inf) at 24 h (µg·h/mL)
Give the number; µg·h/mL is assumed, so skip it.

Please give the measured AUC(0-inf) at 24 h for this compound: CN(CC(=O)N(Cc1ccc(C2CCCCC2)cc1)c1ccc(B(O)O)cc1)S(=O)(=O)c1c(F)c(F)c(F)c(F)c1F 0.49

---

# method: Cmax in ICR mouse at 5 mg/kg, iv measured upto 24 hrs by LC-MS/MS analysis
# Type: ADME, organism-based
# Design: time < 24 hrs, dose 5 mg/kg, route iv
# conditionDescription: in vivo
reportedProperty: Cmax (ng/mL)
Write down the numeric answer in ng/mL and omit the unit.

Bench note: what Cmax did CN(CC(=O)N(Cc1ccc(C2CCCCC2)cc1)c1ccc(B(O)O)cc1)S(=O)(=O)c1c(F)c(F)c(F)c(F)c1F show? 1500
